Test: in vitro
Conditions: human
Attribute Measured: CC50

INSERT INTO assay_data (compound, value_measured) VALUES
  ('COc1ccc([C@H]2c3[nH]c4ccc(Cl)cc4c3CCN2C(=O)Oc2ccc(Cl)cc2)cc1 (racemic)', '> 1000 nM');
